Values from patent US20090062251A1

- targetOrSystem: Human CB1 receptor (hCB1) (Homo sapiens)
assayMetric: log10(Ki) (log10 of the value in nM)

compound	targetOrSystem	log10(Ki)
CCN(CC(=O)NCCCO)C(=O)c1ccc2c(c1)c1c(n2S(=O)(=O)CC)CCC(C2CCOCC2)C1 (centres unmarked)	Human CB1 receptor (hCB1) (Homo sapiens)	1.66
CN(CCCC(=O)NC1CC1)C(=O)c1ccc2c(c1)c1c(n2C)CCC(C2CCOCC2)C1 (centres unmarked)	Human CB1 receptor (hCB1) (Homo sapiens)	0.85
CCn1c2c(c3cc(C(=O)N4CCC(C)CC4)ccc31)CC(C1CCCCC1)CC2 (centres unmarked)	Human CB1 receptor (hCB1) (Homo sapiens)	1.92
CC1CCN(C(=O)c2ccc3c(c2)c2c(n3C)CCC(C3CCCCC3)C2)CC1 (centres unmarked)	Human CB1 receptor (hCB1) (Homo sapiens)	1.47
CC1CCN(C(=O)c2ccc3c(c2)c2c(n3S(C)(=O)=O)CCC(C3CCCCC3)C2)CC1 (centres unmarked)	Human CB1 receptor (hCB1) (Homo sapiens)	1.88

###

// reported Emax per item
- targetOrSystem: Human CB1 receptor (hCB1) (Homo sapiens, UniProt P21554)
- Construct: purchased Receptor Biology
- Sequence (P21554 whole entry): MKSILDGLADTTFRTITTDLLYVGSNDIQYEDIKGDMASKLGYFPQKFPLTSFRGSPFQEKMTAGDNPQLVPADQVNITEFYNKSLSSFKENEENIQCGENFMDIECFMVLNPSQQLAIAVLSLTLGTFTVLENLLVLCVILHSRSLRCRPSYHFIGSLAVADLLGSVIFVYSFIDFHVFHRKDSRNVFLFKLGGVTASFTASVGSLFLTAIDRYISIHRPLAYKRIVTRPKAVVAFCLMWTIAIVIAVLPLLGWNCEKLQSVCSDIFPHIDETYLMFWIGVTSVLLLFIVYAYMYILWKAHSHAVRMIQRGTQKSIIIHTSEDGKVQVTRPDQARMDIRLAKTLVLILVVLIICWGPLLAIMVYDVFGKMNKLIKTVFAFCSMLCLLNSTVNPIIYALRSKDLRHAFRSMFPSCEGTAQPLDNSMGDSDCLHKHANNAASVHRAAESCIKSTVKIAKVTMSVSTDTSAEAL
- testDescription: hCB1 GTPγS binding
- Assay type: biochemical
- experimentalContext: maximal stimulated binding determined with 10 μM Win 55,212-2
assayMetric: Emax (%)

compound	sign	numericResult
CN(CCCC(=O)Nn1cccc1)C(=O)c1ccc2c(c1)c1c(n2C)CC[C@@H](C2CCOCC2)C1	=	89
CCN(CC(=O)NCCCO)C(=O)c1ccc2c(c1)c1c(n2S(=O)(=O)CC)CCC(C2CCOCC2)C1 (stereo not drawn)	=	126
CC1CCN(C(=O)c2ccc3c(c2)c2c(n3S(C)(=O)=O)CCC(C3CCCCC3)C2)CC1 (stereo not drawn)	=	89
CCN(CC(=O)NCCF)C(=O)c1ccc2c(c1)c1c(n2C2CCC2)CCC(C2CCOCC2)C1 (stereo not drawn)	=	80
CCS(=O)(=O)n1c2c(c3cc(C(=O)N4CCC[C@@H](O)C4)ccc31)CC(C1CCOCC1)CC2 (stereo partly drawn)	=	104
Cn1c2c(c3cc(C(=O)N4CCC(C(=O)NC5CC5)CC4)ccc31)CC(C1CCOCC1)CC2 (stereo not drawn)	=	102
CCNC(=O)CC[C@@H](CO)N(C)C(=O)c1ccc2c(c1)c1c(n2C)CC[C@@H](C2CCOCC2)C1	=	126
CCS(=O)(=O)n1c2c(c3cc(C(=O)N4CCC(O)CC4)ccc31)CC(C1CCOCC1)CC2 (stereo not drawn)	=	107
CCS(=O)(=O)n1c2c(c3cc(C(=O)N4CC[C@H](O)C4)ccc31)CC(C1CCOCC1)CC2 (stereo partly drawn)	=	105
CCN(CC(=O)NCCO)C(=O)c1ccc2c(c1)c1c(n2S(=O)(=O)CC)CCC(C2CCOCC2)C1 (stereo not drawn)	=	111
CN(C(=O)c1ccc2c(c1)c1c(n2C)CC[C@@H](C2CCOCC2)C1)[C@H](CO)CCC(=O)NCCF	=	118
CC1CCN(C(=O)c2ccc3c(c2)c2c(n3C)CCC(C3CCCCC3)C2)CC1 (stereo not drawn)	=	106
CCNC(=O)CCCN(C)C(=O)c1ccc2c(c1)c1c(n2C)CCC(C2CCOCC2)C1 (stereo not drawn)	=	111
CCNC(=O)CN(CC)C(=O)c1ccc2c(c1)c1c(n2C(=O)N(C)C)CCC(C2CCOCC2)C1 (stereo not drawn)	>	42
CCNC(=O)[C@H]1CCN(C(=O)c2ccc3c(c2)c2c(n3C)CCC(C3CCOCC3)C2)C1 (stereo partly drawn)	=	122
CCNC(=O)CN(CC)C(=O)c1ccc2c(c1)c1c(n2C2CCC2)CCC(C2CCOCC2)C1 (stereo not drawn)	=	82
CCNC(=O)C1CCN(C(=O)c2ccc3c(c2)c2c(n3C)CCC(C3CCOCC3)C2)C1 (stereo not drawn)	=	119
CCNC(=O)CN(CC)C(=O)c1ccc2c(c1)c1c(n2C)CCC(C2CCOCC2)C1 (stereo not drawn)	=	121
CCN(CC(=O)NC1CC1)C(=O)c1ccc2c(c1)c1c(n2C)CCC(C2CCOCC2)C1 (stereo not drawn)	=	124
Cn1c2c(c3cc(C(=O)N4CC[C@H](C(=O)NCC5CC5)C4)ccc31)CC(C1CCOCC1)CC2 (stereo partly drawn)	=	117
CCN(CC(=O)NC(C)C)C(=O)c1ccc2c(c1)c1c(n2C2CCC2)CCC(C2CCOCC2)C1 (stereo not drawn)	=	70
CCn1c2c(c3cc(C(=O)N(C)CCCC(=O)NCC(F)(F)F)ccc31)CC(C1CCOCC1)CC2 (stereo not drawn)	=	98
Cn1c2c(c3cc(C(=O)N4CCC(C(=O)NCCF)C4)ccc31)CC(C1CCOCC1)CC2 (stereo not drawn)	=	121
CCN(CC(=O)N[C@@H]1CCOC1)C(=O)c1ccc2c(c1)c1c(n2C)CCC(C2CCOCC2)C1 (stereo partly drawn)	=	127
Cn1c2c(c3cc(C(=O)N4CC(C(=O)NC5CC5)C4)ccc31)CC(C1CCOCC1)CC2 (stereo not drawn)	=	121
CCS(=O)(=O)n1c2c(c3cc(C(=O)N4CC[C@@H](O)C4)ccc31)CC(C1CCOCC1)CC2 (stereo partly drawn)	>	89
CCN(CC(=O)NC1CCOCC1)C(=O)c1ccc2c(c1)c1c(n2C)CCC(C2CCOCC2)C1 (stereo not drawn)	>	88
CN(CCCC(=O)NC1CC1)C(=O)c1ccc2c(c1)c1c(n2C)CCC(C2CCOCC2)C1 (stereo not drawn)	=	113
CC(C)C(=O)NC1CCCN(C(=O)c2ccc3c(c2)c2c(n3C)CCC(C3CCOCC3)C2)C1 (stereo not drawn)	=	118
C[C@H](C(=O)NC1CC1)N(C)C(=O)c1ccc2c(c1)c1c(n2C)CCC(C2CCOCC2)C1 (stereo partly drawn)	=	120
CCn1c2c(c3cc(C(=O)N(C)CCCC(=O)NCCF)ccc31)CC(C1CCOCC1)CC2 (stereo not drawn)	=	119
CN(CC(=O)NCCF)C(=O)c1ccc2c(c1)c1c(n2C)CCC(C2CCOCC2)C1 (stereo not drawn)	=	110
CCN(CC(=O)NC1CC1)C(=O)c1ccc2c(c1)c1c(n2CC2CC2)CCC(C2CCOCC2)C1 (stereo not drawn)	=	91
CN(C(=O)c1ccc2c(c1)c1c(n2C)CC[C@@H](C2CCOCC2)C1)[C@H](CO)CCC(=O)NC1COC1	=	119
CCNC(=O)CN(CC)C(=O)c1ccc2c(c1)c1c(n2CCO)CCC(C2CCOCC2)C1 (stereo not drawn)	>	83
CCNC(=O)CN(CC)C(=O)c1ccc2c(c1)c1c(n2CC2CC2)CCC(C2CCOCC2)C1 (stereo not drawn)	=	90

###

- targetOrSystem: Human CB1 receptor (hCB1) (Homo sapiens, UniProt P21554)
- Construct: purchased Receptor Biology
- testDescription: hCB1 GTPγS binding
- Format: biochemical
- experimentalContext: hCB1 membranes, GTPγ35S, 10-point dose-response
pEC50: −log10 of the molar value.
// reported pEC50 per item
assayMetric: pEC50

compound	sign	numericResult
CCN(CC(=O)NC1CCOCC1)C(=O)c1ccc2c(c1)c1c(n2C)CCC(C2CCOCC2)C1 (stereo not drawn)	<	5.95
CC(C)S(=O)(=O)n1c2c(c3cc(C(=O)N(C)CC(=O)NC4CC4)ccc31)CC(C1CCCCC1)CC2 (stereo not drawn)	=	7.36
C[C@H](C(=O)NCCF)N(C)C(=O)c1ccc2c(c1)c1c(n2C)CCC(C2CCOCC2)C1 (stereo partly drawn)	=	6.45
Cn1c2c(c3cc(C(=O)N4CCC[C@H](NC(=O)C5CC5)C4)ccc31)CC(C1CCOCC1)CC2 (stereo partly drawn)	=	7.06
CN(C)NC(=O)CCCN(C)C(=O)c1ccc2c(c1)c1c(n2C)CC[C@@H](C2CCOCC2)C1	=	6.04
CCN(CC(=O)NCC(F)(F)F)C(=O)c1ccc2c(c1)c1c(n2S(=O)(=O)CC)CCC(C2CCOCC2)C1 (stereo not drawn)	=	7.29
CCN(CCCCO)C(=O)c1ccc2c(c1)c1c(n2C)CCC(C2CCOCC2)C1 (stereo not drawn)	=	6.56
CCNC(=O)C1CCN(C(=O)c2ccc3c(c2)c2c(n3C)CCC(C3CCOCC3)C2)C1 (stereo not drawn)	=	6.49
CCS(=O)(=O)n1c2c(c3cc(C(=O)N4CC[C@H](O)C4)ccc31)CC(C1CCOCC1)CC2 (stereo partly drawn)	=	5.34
CCn1c2c(c3cc(C(=O)N(C)CCCC(=O)NCCO)ccc31)CC(C1CCOCC1)CC2 (stereo not drawn)	=	6.22
CCn1c2c(c3cc(C(=O)N(C)CCCC(=O)NC)ccc31)CC(C1CCOCC1)CC2 (stereo not drawn)	=	6.84
CN(CC(=O)NCCF)C(=O)c1ccc2c(c1)c1c(n2C)CCC(C2CCOCC2)C1 (stereo not drawn)	=	6.14
CCn1c2c(c3cc(C(=O)N(C)CCCC(=O)NCC(F)(F)F)ccc31)CC(C1CCOCC1)CC2 (stereo not drawn)	=	6.64
CCN(CC(=O)N[C@H]1CCOC1)C(=O)c1ccc2c(c1)c1c(n2C)CCC(C2CCOCC2)C1 (stereo partly drawn)	=	7.00
CN(C(=O)c1ccc2c(c1)c1c(n2C)CC[C@@H](C2CCOCC2)C1)[C@H](CO)CCC(=O)NC1COC1	=	6.70
Cn1c2c(c3cc(C(=O)N4CCCC(NC(=O)C5CC5)C4)ccc31)CC(C1CCOCC1)CC2 (stereo not drawn)	=	7.39
CCN(CC(=O)NCCCO)C(=O)c1ccc2c(c1)c1c(n2S(=O)(=O)CC)CCC(C2CCOCC2)C1 (stereo not drawn)	=	7.27
CCN(CC(=O)NC(C)C)C(=O)c1ccc2c(c1)c1c(n2C2CCC2)CCC(C2CCOCC2)C1 (stereo not drawn)	=	6.53
CCNC(=O)CCCN(C)C(=O)c1ccc2c(c1)c1c(n2CCF)CCC(C2CCOCC2)C1 (stereo not drawn)	=	6.43
CCN(CC(=O)NC[C@@H](C)O)C(=O)c1ccc2c(c1)c1c(n2C)CCC(C2CCOCC2)C1 (stereo partly drawn)	=	6.50
CCC(=O)NC1CCCN(C(=O)c2ccc3c(c2)c2c(n3C)CCC(C3CCOCC3)C2)C1 (stereo not drawn)	=	6.58
CN(CCCC(=O)NCC#N)C(=O)c1ccc2c(c1)c1c(n2C)CC[C@@H](C2CCOCC2)C1	=	7.15
CCNC(=O)CN(CC)C(=O)c1ccc2c(c1)c1c(n2C)CCC(C2CCOCC2)C1 (stereo not drawn)	=	7.48
CN(CCN(C)C(=S)NC1CC1)C(=O)c1ccc2c(c1)c1c(n2C)CCC(C2CCOCC2)C1 (stereo not drawn)	=	6.79
COCCNC(=O)CCCN(C)C(=O)c1ccc2c(c1)c1c(n2C)CC[C@@H](C2CCOCC2)C1	=	5.92
CN(C(=O)c1ccc2c(c1)c1c(n2C)CC[C@@H](C2CCOCC2)C1)[C@H](CO)CCC(=O)NCC(F)F	=	6.97
Cn1c2c(c3cc(C(=O)N4CC[C@H](CC(=O)NC5CC5)C4)ccc31)CC(C1CCOCC1)CC2 (stereo partly drawn)	=	7.16
CNC(=O)CC[C@@H](CO)N(C)C(=O)c1ccc2c(c1)c1c(n2C)CC[C@@H](C2CCOCC2)C1	=	7.00
CN(CCCC(=O)NC1CC1)C(=O)c1ccc2c(c1)c1c(n2C)CCC(C2CCOCC2)C1 (stereo not drawn)	=	7.79
Cn1c2c(c3cc(C(=O)N4CCCC(C(=O)NC5CC5)C4)ccc31)CC(C1CCOCC1)CC2 (stereo not drawn)	=	6.89
CCN(CC(=O)NC(C)C)C(=O)c1ccc2c(c1)c1c(n2C)CCC(C2CCOCC2)C1 (stereo not drawn)	=	7.38
CCn1c2c(c3cc(C(=O)N(C)CCCC(=O)NCC(F)F)ccc31)CC(C1CCOCC1)CC2 (stereo not drawn)	=	7.01
CCN(CCCC(=O)NCCF)C(=O)c1ccc2c(c1)c1c(n2C)CCC(C2CCOCC2)C1 (stereo not drawn)	=	8.04
Cn1c2c(c3cc(C(=O)N4CC[C@H](C(=O)NCC(F)F)C4)ccc31)CC(C1CCOCC1)CC2 (stereo partly drawn)	=	7.08
CCS(=O)(=O)n1c2c(c3cc(C(=O)N4CCC[C@@H](O)C4)ccc31)CC(C1CCOCC1)CC2 (stereo partly drawn)	=	5.75
Cn1c2c(c3cc(C(=O)N4CCC(C(=O)NCCF)C4)ccc31)CC(C1CCOCC1)CC2 (stereo not drawn)	=	6.58
